Attribution: patent US20260109707A1

# GI50 values compiled below
Test system: T-Rex 293 cell line SC3 cells lacking increased expression of androgen receptor protein
procedure text: Cellular growth inhibition assay, T-Rex 293 SC3 cells without doxycycline (CellTiter-Glo, 72 hours)
Type: cell-based
condition notes: 72 h, T-Rex 293 cell line SC3 cells not exposed to doxycycline (lacking increased androgen receptor expression)
Protocol: The following types of cells were prepared for this experiment: (i) a T-Rex 293 cell line having increased expression of androgen receptor protein due to exposure to doxycycline and (ii) a T-Rex 293 cell line lacking increased expression of androgen receptor protein. Ability of the test compounds to inhibit proliferation of the foregoing cell types was evaluated according to the procedures set forth below. […] Data was normalized using zero luminescence for baseline. […]
readout label: GI50

1) Cc1sc2c(c1C)C(c1ccc(NCCC3CCN(c4ncc(C(=O)N[C@H]5CC[C@H](Oc6ccc(C#N)c(Cl)c6)CC5)cn4)CC3)cc1)=NC(Cc1ncco1)c1nnc(C)n1-2 (some centres unmarked) | < 500 nM
2) Cc1sc2c(c1C)C(c1ccc(N3C[C@@H]4CN(c5ccc(C(=O)N[C@H]6CC[C@H](Oc7ccc(C#N)c(Cl)c7)CC6)nn5)C[C@H]4C3)cc1)=N[C@@H](C)c1nnc(C)n1-2 | < 500 nM
3) Cc1sc2c(c1C)C(c1ccc([C@H]3CCCCN3C(=O)[C@H]3CCCN(c4ccc(C(=O)N[C@H]5CC[C@H](Oc6ccc(C#N)c(Cl)c6)CC5)nn4)C3)cc1)=N[C@@H](Cc1ncco1)c1nnc(C)n1-2 | > 3000 nM
4) CCNC(=O)C[C@@H]1N=C(c2ccc(N(C)CC3CN(c4ccc(C(=O)N[C@H]5CC[C@H](Oc6ccc(C#N)c(Cl)c6)CC5)nn4)C3)cc2)c2c(sc(C)c2C)-n2c(C)nnc21 | 500 to 1500 nM
5) Cc1sc2c(c1C)C(c1ccc(CNC(=O)CNC(=O)c3ccc(C(=O)N[C@H]4CC[C@H](Oc5ccc(C#N)c(Cl)c5)CC4)nn3)cc1)=N[C@@H](Cc1ncco1)c1nnc(C)n1-2 | > 3000 nM
6) Cc1sc2c(c1C)C(c1ccc(C3CC3CC3CCCN(c4ccc(C(=O)N[C@H]5CC[C@H](Oc6ccc(C#N)c(Cl)c6)CC5)nn4)C3)cc1)=N[C@@H](Cc1ncco1)c1nnc(C)n1-2 (some centres unmarked) | < 500 nM
7) Cc1sc2c(c1C)C(c1ccc(N(C)CC(=O)NCc3ccc(C(=O)N[C@H]4CC[C@H](Oc5ccc(C#N)c(Cl)c5)CC4)nn3)cc1)=N[C@H](Cc1ncco1)c1nnc(C)n1-2 | > 3000 nM
8) Cc1sc2c(c1C)C(c1ccc(N3CCN(C4CCN(c5ncc(C(=O)N[C@H]6CC[C@H](Oc7ccc(C#N)c(Cl)c7)CC6)cn5)CC4)CC3)cc1)=NC(Cc1ncco1)c1nnc(C)n1-2 (some centres unmarked) | < 500 nM
9) Cc1sc2c(c1C)C(c1ccc(CNC(=O)[C@H]3CCCN(c4ccc(C(=O)N[C@H]5CC[C@H](Oc6ccc(C#N)c(Cl)c6)CC5)nn4)C3)cc1)=N[C@@H](Cc1ncco1)c1nnc(C)n1-2 | 500 to 1500 nM
10) Cc1sc2c(c1C)C(c1ccc(N3CCC(CCc4ccc(C(=O)N[C@H]5CC[C@H](Oc6ccc(C#N)c(Cl)c6)CC5)nn4)CC3)cc1)=N[C@@H](Cc1ncco1)c1nnc(C)n1-2 | < 500 nM
11) CCNC(=O)C[C@@H]1N=C(c2ccc(N3CC(CC4CN(c5ccc(C(=O)N[C@H]6CC[C@H](Oc7ccc(C#N)c(Cl)c7)CC6)nn5)C4)C3)cc2)c2c(sc(C)c2C)-n2c(C)nnc21 | 500 to 1500 nM
12) Cc1sc2c(c1C)C(c1ccc(C#C[C@H]3C[C@@]4(CCCN(c5ccc(C(=O)N[C@H]6CC[C@H](Oc7ccc(C#N)c(Cl)c7)CC6)nn5)C4)C3)cc1)=N[C@@H](Cc1ncco1)c1nnc(C)n1-2 | < 500 nM
13) Cc1sc2c(c1C)C(c1ccc(N3CCC4(CC3)CCN(c3ccc(C(=O)NC5CCC(Oc6ccc(C#N)c(Cl)c6)CC5)nn3)CC4)cc1)=N[C@@H](Cc1ncco1)c1nnc(C)n1-2 (some centres unmarked) | < 500 nM
14) Cc1sc2c(c1C)C(c1ccc(C3CC(N4CCN(c5ccc(C(=O)N[C@H]6CC[C@H](Oc7ccc(C#N)c(Cl)c7)CC6)nn5)CC4)C3)cc1)=N[C@@H](C)c1nnc(C)n1-2 (some centres unmarked) | < 500 nM
15) Cc1sc2c(c1C)C(c1ccc(N3CC4(CC(CCc5ccc(C(=O)N[C@H]6CC[C@H](Oc7ccc(C#N)c(Cl)c7)CC6)nn5)C4)C3)cc1)=N[C@@H](C)c1nnc(C)n1-2 | 500 to 1500 nM
16) Cc1sc2c(c1C)C(c1ccc(C#CC3CC4(C3)CN(c3ccc(C(=O)N[C@H]5CC[C@H](Oc6ccc(C#N)c(Cl)c6)CC5)nn3)C4)cc1F)=NC(Cc1ncco1)c1nnc(C)n1-2 (mixture of isomers) | < 500 nM
17) Cc1sc2c(c1C)C(c1ccc(CC[C@H]3CC[C@@]4(CCCN(c5ccc(C(=O)N[C@H]6CC[C@H](Oc7ccc(C#N)c(Cl)c7)CC6)nn5)C4)C3)cc1)=N[C@@H](Cc1ncco1)c1nnc(C)n1-2 | > 3000 nM
18) COCC[C@@H]1N=C(c2ccc(N3CCC4(CCN(c5ccc(C(=O)N[C@H]6CC[C@H](Oc7ccc(C#N)c(Cl)c7)CC6)nn5)CC4)C3)cc2)c2c(sc(C)c2C)-n2c(C)nnc21 | < 500 nM
19) Cc1sc2c(c1C)C(c1ccc(C(C)(C)N3CC4(CCN(c5ccc(C(=O)N[C@H]6CC[C@H](Oc7ccc(C#N)c(Cl)c7)CC6)nn5)CC4)C3)cc1)=N[C@@H](Cc1ncco1)c1nnc(C)n1-2 | > 3000 nM
20) Cc1sc2c(c1C)C(c1ccc(N3CC(C4CCN(c5ccc(C(=O)N[C@H]6CC[C@H](Oc7ccc(C#N)c(Cl)c7)CC6)nn5)CC4)C3)cc1)=NCc1nnc(C)n1-2 | > 3000 nM

* * *

# pKd values compiled below
tested target: BRD4-BD2 (Homo sapiens)
procedure text: bromoKdELECT assay for binding affinity to BRD4-BD2
condition notes: binding to BRD4-BD2, Table 5
Experimental: Compounds were tested using a bromoKdELECT assay. T7 phage strains displaying bromodomains were grown in parallel in 24-well blocks in an E. coli host derived from the BL21 strain. […] Kds were determined using an 11-point 3-fold compound dilution series with one DMSO control point. […] The bromodomain concentration in the eluates was measured by qPCR.
pKd: −log10 of the molar value.
readout label: pKd

1) CCNC(=O)C[C@@H]1N=C(c2ccc(CC3CCN(c4ccc(C(=O)N[C@H]5CC[C@H](Oc6ccc(C#N)c(Cl)c6)CC5)nn4)CC3)cc2)c2c(sc(C)c2C)-n2c(C)nnc21 | 6.30 to 7.30
2) CCNC(=O)C[C@@H]1N=C(c2ccc(N3CC4(C3)CN(c3ccc(C(=O)N[C@H]5CC[C@H](Oc6ccc(C#N)c(Cl)c6)CC5)nn3)C4)cc2)c2c(sc(C)c2C)-n2c(C)nnc21 | 6.30 to 7.30
3) CCNC(=O)C[C@@H]1N=C(c2ccc(N3CCC(OC4CCN(c5ccc(C(=O)N[C@H]6CC[C@H](Oc7ccc(C#N)c(Cl)c7)CC6)nn5)CC4)CC3)cc2)c2c(sc(C)c2C)-n2c(C)nnc21 | 6.30 to 7.30
4) CCNC(=O)C[C@@H]1N=C(c2ccc(CCCC3CCN(c4ccc(C(=O)N[C@H]5CC[C@H](Oc6ccc(C#N)c(Cl)c6)CC5)nn4)CC3)cc2)c2c(sc(C)c2C)-n2c(C)nnc21 | > 7.30
5) CCNC(=O)C[C@@H]1N=C(c2ccc(CCCOC3CCN(c4ccc(C(=O)N[C@H]5CC[C@H](Oc6ccc(C#N)c(Cl)c6)CC5)nn4)CC3)cc2)c2c(sc(C)c2C)-n2c(C)nnc21 | > 7.30

* * *

# GI50 values compiled below
System: T-Rex 293 cell line SC3 cells lacking increased expression of androgen receptor protein
procedure text: Cellular growth inhibition assay, T-Rex 293 SC3 cells without doxycycline (CellTiter-Glo, 72 hours)
Type: cell-based
condition notes: 72 h, T-Rex 293 cell line SC3 cells not exposed to doxycycline (lacking increased androgen receptor expression)
readout label: GI50

1) Cc1sc2c(c1C)C(c1ccc(N3CCC(CN4CCN(c5ccc(C(=O)N[C@H]6CC[C@H](Oc7ccc(C#N)c(Cl)c7)CC6)nn5)CC4)CC3)cc1)=N[C@@H](C)c1nnc(C)n1-2 [I-499] | > 3000 nM
2) CCNC(=O)C[C@@H]1N=C(c2ccc(C3CCC(OC4CCN(c5ccc(C(=O)N[C@H]6CC[C@H](Oc7ccc(C#N)c(Cl)c7)CC6)nn5)CC4)C3)cc2)c2c(sc(C)c2C)-n2c(C)nnc21 (some centres unmarked) [I-67] | < 500 nM
3) Cc1sc2c(c1C)C(c1ccc(OC[C@H]3CCCN(c4ccc(C(=O)N[C@H]5CC[C@H](Oc6ccc(C#N)c(Cl)c6)CC5)nn4)C3)cc1)=N[C@@H](Cc1ncco1)c1nnc(C)n1-2 [I-219] | 1500 to 3000 nM
4) Cc1sc2c(c1C)C(c1ccc(OC3CC(CC4CCN(c5ccc(C(=O)N[C@H]6CC[C@H](Oc7ccc(C#N)c(Cl)c7)CC6)nn5)CC4)C3)cc1)=N[C@@H](C)c1nnc(C)n1-2 (some centres unmarked) [I-543] | > 3000 nM
5) CCNC(=O)C[C@@H]1N=C(c2ccc(OC3CC(OC4CCN(c5ccc(C(=O)N[C@H]6CC[C@H](Oc7ccc(C#N)c(Cl)c7)CC6)nn5)CC4)C3)cc2)c2c(sc(C)c2C)-n2c(C)nnc21 (some centres unmarked) [I-37] | < 500 nM
